Values were extracted from the NIST ThermoML archive (doi:10.1021/acs.jced.8b00601).

# activity coefficient annotations
Assay: activity coefficient (dimensionless); of the first substance listed, at infinite dilution; xn = mol fraction of the nth substance listed
Conditions: 313 K; 101.33 kPa; Liquid; Chromatography; x1 = 0
VALUE KIND: activity coefficient

[[record]]
compound = "C1COCCO1 [1,4-dioxane] + O=S(=O)([N-]S(=O)(=O)C(F)(F)F)C(F)(F)F.O=S(=O)([N-]S(=O)(=O)C(F)(F)F)C(F)(F)F.O=S(=O)([N-]S(=O)(=O)C(F)(F)F)C(F)(F)F.c1ccc2cc(-n3cc[n+](Cc4cc(C[n+]5ccn(-c6ccc7ccccc7c6)c5)cc(C[n+]5ccn(-c6ccc7ccccc7c6)c5)c4)c3)ccc2c1"
measured_value = 0.481

[[record]]
compound = "ClCCCl [1,2-dichloroethane] + O=S(=O)([N-]S(=O)(=O)C(F)(F)F)C(F)(F)F.O=S(=O)([N-]S(=O)(=O)C(F)(F)F)C(F)(F)F.O=S(=O)([N-]S(=O)(=O)C(F)(F)F)C(F)(F)F.c1ccc2cc(-n3cc[n+](Cc4cc(C[n+]5ccn(-c6ccc7ccccc7c6)c5)cc(C[n+]5ccn(-c6ccc7ccccc7c6)c5)c4)c3)ccc2c1"
measured_value = 0.758

[[record]]
compound = "O=C1CCCC1 [cyclopentanone] + O=S(=O)([N-]S(=O)(=O)C(F)(F)F)C(F)(F)F.O=S(=O)([N-]S(=O)(=O)C(F)(F)F)C(F)(F)F.O=S(=O)([N-]S(=O)(=O)C(F)(F)F)C(F)(F)F.c1ccc2cc(-n3cc[n+](Cc4cc(C[n+]5ccn(-c6ccc7ccccc7c6)c5)cc(C[n+]5ccn(-c6ccc7ccccc7c6)c5)c4)c3)ccc2c1"
measured_value = 0.303

[[record]]
compound = "CC#N [acetonitrile] + O=S(=O)([N-]S(=O)(=O)C(F)(F)F)C(F)(F)F.O=S(=O)([N-]S(=O)(=O)C(F)(F)F)C(F)(F)F.O=S(=O)([N-]S(=O)(=O)C(F)(F)F)C(F)(F)F.c1ccc2cc(-n3cc[n+](Cc4cc(C[n+]5ccn(-c6ccc7ccccc7c6)c5)cc(C[n+]5ccn(-c6ccc7ccccc7c6)c5)c4)c3)ccc2c1"
measured_value = 0.263

[[record]]
compound = "CCCCCCC [heptane] + O=S(=O)([N-]S(=O)(=O)C(F)(F)F)C(F)(F)F.O=S(=O)([N-]S(=O)(=O)C(F)(F)F)C(F)(F)F.O=S(=O)([N-]S(=O)(=O)C(F)(F)F)C(F)(F)F.c1ccc2cc(-n3cc[n+](Cc4cc(C[n+]5ccn(-c6ccc7ccccc7c6)c5)cc(C[n+]5ccn(-c6ccc7ccccc7c6)c5)c4)c3)ccc2c1"
measured_value = 12.2

[[record]]
compound = "c1ccccc1 [benzene] + O=S(=O)([N-]S(=O)(=O)C(F)(F)F)C(F)(F)F.O=S(=O)([N-]S(=O)(=O)C(F)(F)F)C(F)(F)F.O=S(=O)([N-]S(=O)(=O)C(F)(F)F)C(F)(F)F.c1ccc2cc(-n3cc[n+](Cc4cc(C[n+]5ccn(-c6ccc7ccccc7c6)c5)cc(C[n+]5ccn(-c6ccc7ccccc7c6)c5)c4)c3)ccc2c1"
measured_value = 2.58


###

Test: activity coefficient (dimensionless); of the first substance listed, at infinite dilution; xn = mol fraction of the nth substance listed
Conditions: 323 K; 101.33 kPa; Liquid; Chromatography; x1 = 0
Binning of activity coefficient into classes: class 1 (below 0.7), class 2 (0.7 to below 3), class 3 (3 or more)

[[record]]
compound = "ClCCCl [1,2-dichloroethane] + O=S(=O)([N-]S(=O)(=O)C(F)(F)F)C(F)(F)F.O=S(=O)([N-]S(=O)(=O)C(F)(F)F)C(F)(F)F.O=S(=O)([N-]S(=O)(=O)C(F)(F)F)C(F)(F)F.c1ccc2cc(-n3cc[n+](Cc4cc(C[n+]5ccn(-c6ccc7ccccc7c6)c5)cc(C[n+]5ccn(-c6ccc7ccccc7c6)c5)c4)c3)ccc2c1"
group_label = "class 2"

[[record]]
compound = "CCCCCCC [heptane] + O=S(=O)([N-]S(=O)(=O)C(F)(F)F)C(F)(F)F.O=S(=O)([N-]S(=O)(=O)C(F)(F)F)C(F)(F)F.O=S(=O)([N-]S(=O)(=O)C(F)(F)F)C(F)(F)F.c1ccc2cc(-n3cc[n+](Cc4cc(C[n+]5ccn(-c6ccc7ccccc7c6)c5)cc(C[n+]5ccn(-c6ccc7ccccc7c6)c5)c4)c3)ccc2c1"
group_label = "class 3"

[[record]]
compound = "O=Cc1ccccc1 [benzaldehyde] + O=S(=O)([N-]S(=O)(=O)C(F)(F)F)C(F)(F)F.O=S(=O)([N-]S(=O)(=O)C(F)(F)F)C(F)(F)F.O=S(=O)([N-]S(=O)(=O)C(F)(F)F)C(F)(F)F.c1ccc2cc(-n3cc[n+](Cc4cc(C[n+]5ccn(-c6ccc7ccccc7c6)c5)cc(C[n+]5ccn(-c6ccc7ccccc7c6)c5)c4)c3)ccc2c1"
group_label = "class 2"

[[record]]
compound = "CCO [ethanol] + O=S(=O)([N-]S(=O)(=O)C(F)(F)F)C(F)(F)F.O=S(=O)([N-]S(=O)(=O)C(F)(F)F)C(F)(F)F.O=S(=O)([N-]S(=O)(=O)C(F)(F)F)C(F)(F)F.c1ccc2cc(-n3cc[n+](Cc4cc(C[n+]5ccn(-c6ccc7ccccc7c6)c5)cc(C[n+]5ccn(-c6ccc7ccccc7c6)c5)c4)c3)ccc2c1"
group_label = "class 2"

[[record]]
compound = "ClC(Cl)(Cl)Cl [tetrachloromethane] + O=S(=O)([N-]S(=O)(=O)C(F)(F)F)C(F)(F)F.O=S(=O)([N-]S(=O)(=O)C(F)(F)F)C(F)(F)F.O=S(=O)([N-]S(=O)(=O)C(F)(F)F)C(F)(F)F.c1ccc2cc(-n3cc[n+](Cc4cc(C[n+]5ccn(-c6ccc7ccccc7c6)c5)cc(C[n+]5ccn(-c6ccc7ccccc7c6)c5)c4)c3)ccc2c1"
group_label = "class 3"

[[record]]
compound = "C1CCCCC1 [cyclohexane] + O=S(=O)([N-]S(=O)(=O)C(F)(F)F)C(F)(F)F.O=S(=O)([N-]S(=O)(=O)C(F)(F)F)C(F)(F)F.O=S(=O)([N-]S(=O)(=O)C(F)(F)F)C(F)(F)F.c1ccc2cc(-n3cc[n+](Cc4cc(C[n+]5ccn(-c6ccc7ccccc7c6)c5)cc(C[n+]5ccn(-c6ccc7ccccc7c6)c5)c4)c3)ccc2c1"
group_label = "class 3"

[[record]]
compound = "O=C1CCCCC1 [cyclohexanone] + O=S(=O)([N-]S(=O)(=O)C(F)(F)F)C(F)(F)F.O=S(=O)([N-]S(=O)(=O)C(F)(F)F)C(F)(F)F.O=S(=O)([N-]S(=O)(=O)C(F)(F)F)C(F)(F)F.c1ccc2cc(-n3cc[n+](Cc4cc(C[n+]5ccn(-c6ccc7ccccc7c6)c5)cc(C[n+]5ccn(-c6ccc7ccccc7c6)c5)c4)c3)ccc2c1"
group_label = "class 2"

[[record]]
compound = "CC#N [acetonitrile] + O=S(=O)([N-]S(=O)(=O)C(F)(F)F)C(F)(F)F.O=S(=O)([N-]S(=O)(=O)C(F)(F)F)C(F)(F)F.O=S(=O)([N-]S(=O)(=O)C(F)(F)F)C(F)(F)F.c1ccc2cc(-n3cc[n+](Cc4cc(C[n+]5ccn(-c6ccc7ccccc7c6)c5)cc(C[n+]5ccn(-c6ccc7ccccc7c6)c5)c4)c3)ccc2c1"
group_label = "class 1"

[[record]]
compound = "CCCC=O [butanal] + O=S(=O)([N-]S(=O)(=O)C(F)(F)F)C(F)(F)F.O=S(=O)([N-]S(=O)(=O)C(F)(F)F)C(F)(F)F.O=S(=O)([N-]S(=O)(=O)C(F)(F)F)C(F)(F)F.c1ccc2cc(-n3cc[n+](Cc4cc(C[n+]5ccn(-c6ccc7ccccc7c6)c5)cc(C[n+]5ccn(-c6ccc7ccccc7c6)c5)c4)c3)ccc2c1"
group_label = "class 1"

[[record]]
compound = "c1ccncc1 [pyridine] + O=S(=O)([N-]S(=O)(=O)C(F)(F)F)C(F)(F)F.O=S(=O)([N-]S(=O)(=O)C(F)(F)F)C(F)(F)F.O=S(=O)([N-]S(=O)(=O)C(F)(F)F)C(F)(F)F.c1ccc2cc(-n3cc[n+](Cc4cc(C[n+]5ccn(-c6ccc7ccccc7c6)c5)cc(C[n+]5ccn(-c6ccc7ccccc7c6)c5)c4)c3)ccc2c1"
group_label = "class 1"

